The measured values listed here are drawn from patent US8658604B2.

Listed next: entries and their corresponding Chymase at 100 μM %.
- experimental.system: Chymase, from human skin (Homo sapiens)
- Sequence (P23946 22-247): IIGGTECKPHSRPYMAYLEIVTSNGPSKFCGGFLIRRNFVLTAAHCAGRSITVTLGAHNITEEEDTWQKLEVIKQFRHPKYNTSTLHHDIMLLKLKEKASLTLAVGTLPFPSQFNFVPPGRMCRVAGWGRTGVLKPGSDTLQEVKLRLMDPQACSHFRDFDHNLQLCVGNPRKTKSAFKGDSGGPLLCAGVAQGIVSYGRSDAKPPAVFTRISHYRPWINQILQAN
- assay.remarks: Enzymatic assay, chymase
Where a SMILES comes first, the peptide text is derived from it.
parameter: Chymase at 100 μM %

molecule="CCCC[C@@H]1NC(=O)[C@H]([C@@H](C)O)NC(=O)[C@@H]2CSSC[C@H](NC(=O)[C@H]([C@@H](C)CC)NC(=O)[C@@H]3CCCN3C(=O)[C@@H]3CCCN3C(=O)[C@H](CC(=O)O)NC(=O)[C@H](CO)NC1=O)C(=O)N[C@@H](Cc1ccc(O)cc1)C(=O)N1CCC[C@@H]1C(=O)N1CCC[C@H]1C(=O)N[C@@H](Cc1ccccc1)C(=O)N2 [Ex. 60] (HELM PEPTIDE1{F.C.T.[Nle].S.D.P.P.I.C.Y.[dP].P}$PEPTIDE1,PEPTIDE1,2:R3-10:R3|PEPTIDE1,PEPTIDE1,1:R1-13:R2$$$V2.0)" reported_value=60%
molecule="CCCC[C@@H]1NC(=O)[C@@H]2CCCN2C(=O)[C@H]2CCCN2C(=O)[C@H](Cc2ccc(O)cc2)NC(=O)[C@@H]2CSSC[C@H](NC1=O)C(=O)N[C@@H]([C@@H](C)O)C(=O)N[C@@H](C)C(=O)N[C@@H](CO)C(=O)N[C@@H](CC1CCCCC1)C(=O)N1CCC[C@H]1C(=O)N1CCC[C@H]1C(=O)N[C@@H](CCC(N)=O)C(=O)N2 [Ex. 141] (HELM PEPTIDE1{[Nle].C.T.A.S.[Cha].P.P.Q.C.Y.[dP].P}$PEPTIDE1,PEPTIDE1,2:R3-10:R3|PEPTIDE1,PEPTIDE1,1:R1-13:R2$$$V2.0)" reported_value=0%
molecule="CCCCCCCC[C@@H]1NC(=O)[C@@H]2CCCN2C(=O)[C@H]2CCCN2C(=O)[C@H](Cc2ccc(O)cc2)NC(=O)[C@@H]2CSSC[C@H](NC1=O)C(=O)N[C@@H]([C@@H](C)O)C(=O)N[C@@H](C)C(=O)N[C@@H](CO)C(=O)N[C@@H]([C@@H](C)CC)C(=O)N1CCC[C@H]1C(=O)N1CCC[C@H]1C(=O)N[C@@H](CCC(N)=O)C(=O)N2 [Ex. 102] (HELM PEPTIDE1{[CCCCCCCC[C@H](N[*:1])C(=O)[*:2]].C.T.A.S.I.P.P.Q.C.Y.[dP].P}$PEPTIDE1,PEPTIDE1,2:R3-10:R3|PEPTIDE1,PEPTIDE1,1:R1-13:R2$$$V2.0)" reported_value=0%
molecule="CCCCCC[C@@H]1NC(=O)[C@@H]2CCCN2C(=O)[C@H]2CCCN2C(=O)[C@H](Cc2ccc(O)cc2)NC(=O)[C@@H]2CSSC[C@H](NC1=O)C(=O)N[C@@H]([C@@H](C)O)C(=O)N[C@@H](C)C(=O)N[C@@H](CO)C(=O)N[C@@H]([C@@H](C)CC)C(=O)N1CCC[C@H]1C(=O)N1CCC[C@H]1C(=O)N[C@@H](CCC(N)=O)C(=O)N2 [Ex. 99] (HELM PEPTIDE1{[CCCCCC[C@H](N[*:1])C(=O)[*:2]].C.T.A.S.I.P.P.Q.C.Y.[dP].P}$PEPTIDE1,PEPTIDE1,2:R3-10:R3|PEPTIDE1,PEPTIDE1,1:R1-13:R2$$$V2.0)" reported_value=0%

====

- experimental.system: Chymase, from human skin (Homo sapiens)
- assay.remarks: Enzymatic assay, chymase
parameter: Chymase at 100 μM % (%)

compound="CCCC[C@@H]1NC(=O)[C@@H]2CCCN2C(=O)[C@H]2CCCN2C(=O)[C@H](Cc2ccc(O)cc2)NC(=O)[C@@H]2CSSC[C@H](NC1=O)C(=O)N[C@@H]([C@@H](C)O)C(=O)N[C@@H](C)C(=O)N[C@@H](CO)C(=O)N[C@@H]([C@@H](C)CC)C(=O)N1CCC[C@H]1C(=O)N1CC(NC(=O)c3ccccc3)C[C@H]1C(=O)N[C@@H](CCC(N)=O)C(=O)N2 (single isomer, unassigned) [Ex. 138]" parameter="Chymase at 100 μM %" reported_value=4.6
compound="CCCC[C@@H]1NC(=O)[C@@H]2CCCN2C(=O)[C@H]2CCCN2C(=O)[C@H](Cc2ccc(O)cc2)NC(=O)[C@@H]2CSSC[C@H](NC1=O)C(=O)N[C@@H]([C@@H](C)O)C(=O)N[C@@H](C)C(=O)N[C@@H](CO)C(=O)N[C@@H]([C@@H](C)CC)C(=O)N1CCC[C@H]1C(=O)N1CC(NC(=O)c3ccccc3)C[C@H]1C(=O)N[C@@H](CCC(N)=O)C(=O)N2 (single isomer, unassigned) [Ex. 88]" parameter="Chymase at 100 μM %" reported_value=0

====

- experimental.system: Tryptase, from human lung
- assay.remarks: Enzymatic assay, tryptase
- reported.conditions: read-out: Tryptase IC50
pIC50: −log10 of the molar value. Where a SMILES comes first, the peptide text is derived from it.
parameter: pIC50

compound="CC[C@H](C)[C@@H]1NC(=O)[C@@H]2CCCN2C(=O)[C@H]2CCCN2C(=O)[C@H](CCCNC(=N)N)NC(=O)[C@@H]2CSSC[C@H](NC1=O)C(=O)N[C@@H]([C@@H](C)O)C(=O)N[C@@H](CCCCN)C(=O)N[C@@H](CO)C(=O)N[C@@H](Cc1ccc(O)cc1)C(=O)N1CCC[C@H]1C(=O)N1CCC[C@H]1C(=O)N[C@@H]([C@@H](C)CC)C(=O)N2 [Ex. 183] (HELM PEPTIDE1{I.C.T.K.S.Y.P.P.I.C.R.[dP].P}$PEPTIDE1,PEPTIDE1,2:R3-10:R3|PEPTIDE1,PEPTIDE1,1:R1-13:R2$$$V2.0)" reported_value=7.60

====

- System: HELA cells (Acc57)
- assay.remarks: Cytotoxicity assay (MTT reduction), HELA cells
- Type: cell-based
- reported.conditions: Hela cells
Where a SMILES comes first, the peptide text is derived from it.
Listed next: entries and their corresponding Cytotoxicity LC50/GI50 Hela cells.
parameter: Cytotoxicity LC50/GI50 Hela cells

compound="CC[C@H](C)[C@@H]1NC(=O)[C@H](C)NC(=O)[C@@H]2CCCN2C(=O)[C@H](CC(=O)O)NC(=O)[C@H](CO)NC(=O)[C@H](CCCCN)NC(=O)[C@H]([C@@H](C)O)NC(=O)[C@@H]2CSSC[C@H](NC1=O)C(=O)N[C@@H](CCCNC(=N)N)C(=O)N1CCC[C@@H]1C(=O)N1CCC[C@H]1C(=O)N[C@@H]([C@@H](C)CC)C(=O)N2 [Ex. 14] (HELM PEPTIDE1{I.C.T.K.S.D.P.A.I.C.R.[dP].P}$PEPTIDE1,PEPTIDE1,2:R3-10:R3|PEPTIDE1,PEPTIDE1,1:R1-13:R2$$$V2.0)" reported_value="100 µM"
compound="CC[C@H](C)[C@@H]1NC(=O)[C@@H]2CCCN2C(=O)[C@H]2CCCN2C(=O)[C@H](CCCNC(=N)N)NC(=O)[C@@H]2CSSC[C@H](NC1=O)C(=O)N[C@@H]([C@@H](C)O)C(=O)N[C@@H](CCCCN)C(=O)N[C@@H](CO)C(=O)N[C@@H](CC(=O)O)C(=O)N1CCC[C@H]1C(=O)N1CCC[C@H]1C(=O)N[C@@H](Cc1ccc(O)cc1)C(=O)N2 [Ex. 18] (HELM PEPTIDE1{I.C.T.K.S.D.P.P.Y.C.R.[dP].P}$PEPTIDE1,PEPTIDE1,2:R3-10:R3|PEPTIDE1,PEPTIDE1,1:R1-13:R2$$$V2.0)" reported_value="100 µM"

====

- experimental.system: Thrombin, from Human Plasma (Homo sapiens, UniProt P00734)
- assay.remarks: Enzymatic assay, thrombin
Where a SMILES comes first, the peptide text is derived from it.
Listed next: entries and their corresponding Thrombin at 100 μM %.
parameter: Thrombin at 100 μM % (%)

molecule="CC[C@H](C)[C@@H]1NC(=O)[C@@H]2CCCN2C(=O)[C@@H]2CCCN2C(=O)[C@H](CC(=O)O)NC(=O)[C@H](CO)NC(=O)[C@H](CCCCN)NC(=O)[C@H]([C@@H](C)O)NC(=O)[C@@H]2CSSC[C@H](NC1=O)C(=O)N[C@@H](CO)C(=O)N[C@H](C)C(=O)N1CCC[C@H]1C(=O)N[C@@H](Cc1ccccc1)C(=O)N2 [Ex. 49] (HELM PEPTIDE1{F.C.T.K.S.D.P.P.I.C.S.[dA].P}$PEPTIDE1,PEPTIDE1,2:R3-10:R3|PEPTIDE1,PEPTIDE1,1:R1-13:R2$$$V2.0)" parameter="Thrombin at 100 μM %" reported_value=7.9
molecule="CC[C@H](C)[C@@H]1NC(=O)[C@@H]2CCCN2C(=O)[C@@H]2CCCN2C(=O)[C@H](CC(=O)O)NC(=O)[C@H](CO)NC(=O)[C@H](CCCCN)NC(=O)[C@H]([C@@H](C)O)NC(=O)[C@@H]2CSSC[C@H](NC1=O)C(=O)N[C@@H](CC(=O)O)C(=O)N1CCC[C@@H]1C(=O)N1CCC[C@H]1C(=O)N[C@@H](C1CCCCC1)C(=O)N2 [Ex. 39] (HELM PEPTIDE1{[O=C([C@@H](N[*:1])C1CCCCC1)[*:2]].C.T.K.S.D.P.P.I.C.D.[dP].P}$PEPTIDE1,PEPTIDE1,2:R3-10:R3|PEPTIDE1,PEPTIDE1,1:R1-13:R2$$$V2.0)" parameter="Thrombin at 100 μM %" reported_value=2
